biological target: Motilin receptor (Homo sapiens, UniProt O43193); assay: Antagonist activity against human motilin receptor in aequoscreen cells assessed as inhibition of motilin induced calcium release by aequorin assay; type: functional, cell-based
Sequence (O43193 whole entry): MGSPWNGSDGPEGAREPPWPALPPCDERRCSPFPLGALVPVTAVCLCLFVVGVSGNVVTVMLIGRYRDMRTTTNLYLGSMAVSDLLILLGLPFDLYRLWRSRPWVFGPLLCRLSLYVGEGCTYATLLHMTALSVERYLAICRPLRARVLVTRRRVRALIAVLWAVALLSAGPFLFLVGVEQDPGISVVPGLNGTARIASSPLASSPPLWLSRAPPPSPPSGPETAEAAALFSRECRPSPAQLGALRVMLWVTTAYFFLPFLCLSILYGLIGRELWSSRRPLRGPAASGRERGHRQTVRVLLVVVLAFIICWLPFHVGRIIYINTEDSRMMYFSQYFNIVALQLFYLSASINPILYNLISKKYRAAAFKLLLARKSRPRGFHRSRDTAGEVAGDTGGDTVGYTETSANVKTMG
endpoint.label: IC50 (nM)

Below, each entry is followed by its recorded IC50 result.
{"smiles.text": "CC(C)[C@H]1NC(=O)[C@@H](Cc2cccc(Cl)c2)NCCOc2ccccc2CCCNC(=O)[C@H](Cn2cccn2)NC1=O", "test.target": "Motilin receptor (Homo sapiens, UniProt O43193)", "IC50 [nM]": 56}
{"smiles.text": "CC(C)[C@H]1NC(=O)[C@@H](Cc2cccc(C(F)(F)F)c2)NCCOc2ccccc2CCCNC(=O)[C@H](CN)NC1=O", "test.target": "Motilin receptor (Homo sapiens, UniProt O43193)", "IC50 [nM]": 8}
{"smiles.text": "CC(C)[C@H]1NC(=O)[C@@H](Cc2cccc(Cl)c2)NCCOc2ccccc2CCCNC(=O)[C@H](CN(C)C)NC1=O", "test.target": "Motilin receptor (Homo sapiens, UniProt O43193)", "IC50 [nM]": 95}

A. CC(C)[C@H]1NC(=O)[C@@H](Cc2cccc(C(F)(F)F)c2)NCCOc2ccccc2CCCNC(=O)[C@H](CNC(=N)N)NC1=O
B. CC(C)[C@H]1NC(=O)[C@@H](Cc2cccc(C(F)(F)F)c2)NCCOc2ccccc2CCCNC(=O)[C@H](CN2CCCC2)NC1=O
C. CNC[C@@H]1NC(=O)[C@@H](C(C)C)NC(=O)[C@@H](Cc2cccc(C(F)(F)F)c2)NCCOc2ccccc2CCCNC1=O
[Q] Which order do these items take when sorted by rising IC50? List them. Please write the labels in the order that was asked for.
[A] B, C, A

* * *

This section lists Ki readings for UniProt:O43193.
endpoint.label: Ki (nM)

Below, each entry is followed by its recorded Ki result.
{"smiles.text": "CC(C)NC[C@@H]1NC(=O)[C@@H](C(C)C)NC(=O)[C@@H](Cc2ccc(O)cc2)NCCOc2ccccc2CCCNC1=O", "Ki, nM": 376}
{"smiles.text": "CC(C)[C@H]1NC(=O)[C@@H](Cc2ccc(O)cc2)NCCOc2ccccc2CCCNC(=O)[C@H](CCN)NC1=O", "Ki, nM": 342}
{"smiles.text": "CC(C)[C@H]1NC(=O)[C@@H](Cc2ccc(Cl)cc2)NCCOc2ccccc2CCCNC(=O)[C@H](CNC(N)=O)NC1=O", "Ki, nM": 543}
{"smiles.text": "CC(C)[C@H]1NC(=O)[C@@H](Cc2cccc(Cl)c2)NCCOc2ccccc2CCCNC(=O)[C@H](CN=C2NCCN2)NC1=O", "Ki, nM": 51}
{"smiles.text": "CC(C)[C@H]1NC(=O)[C@@H](Cc2cccc(Cl)c2)NCCOc2ccccc2CCCNC(=O)[C@H](CCC(=N)N)NC1=O", "Ki, nM": 27}

P. CNC[C@@H]1NC(=O)[C@@H](C(C)C)NC(=O)[C@@H](Cc2ccc(Cl)cc2)NCCOc2ccccc2CCCNC1=O
Q. CC(C)[C@H]1NC(=O)[C@@H](Cc2ccc(O)cc2)NCCOc2ccccc2CCCNC(=O)[C@H](CN)NC1=O
[Q] // returns P or Q , whichever has the lower Ki Write the label of whichever entry you select.
[A] P

I. CC(C)[C@H]1NC(=O)[C@@H](Cc2cccc(C(F)(F)F)c2)NCCOc2ccccc2CCCNC(=O)[C@H](CNc2ncccn2)NC1=O
II. CC(C)[C@H]1NC(=O)[C@@H](Cc2ccc(Cl)cc2)NCCOc2ccccc2CCCNC(=O)[C@H](CN=C(N)N)NC1=O
III. CC(C)[C@H]1NC(=O)[C@@H](Cc2cccc(Cl)c2)NCCOc2ccccc2CCCNC(=O)[C@H](CN/C(N)=N/C#N)NC1=O
IV. CC(C)[C@H]1NC(=O)[C@@H](Cc2cccc(Cl)c2)NCCOc2ccccc2CCCNC(=O)[C@H](CN=C(N)N)NC1=O
[Q] Hello, I need these entries ordered by Ki, highest reading first. Thanks! Please write the labels in the order that was asked for.
[A] III, IV, I, II

I. CC(C)[C@H]1NC(=O)[C@@H](Cc2cccc(Cl)c2)NCCOc2ccccc2CCCNC(=O)[C@H](CN(C)C)NC1=O
II. CC(C)[C@H]1NC(=O)[C@@H](Cc2ccc(Cl)cc2)NCCOc2ccccc2CCCNC(=O)[C@H](CN(C)C)NC1=O
[Q] Recorded Ki values differ for I and II ; which one is higher? Write the label of whichever entry you select.
[A] I
